- target or system: T1, human CD22-ECD-His protein (human, UniProt P20273 20-687)
- T1 construct: Made in house in HEK293E; also called hCD22-ECD-His; recombinant human CD22-ECD His protein; not shown: His tag
- T1 sequence: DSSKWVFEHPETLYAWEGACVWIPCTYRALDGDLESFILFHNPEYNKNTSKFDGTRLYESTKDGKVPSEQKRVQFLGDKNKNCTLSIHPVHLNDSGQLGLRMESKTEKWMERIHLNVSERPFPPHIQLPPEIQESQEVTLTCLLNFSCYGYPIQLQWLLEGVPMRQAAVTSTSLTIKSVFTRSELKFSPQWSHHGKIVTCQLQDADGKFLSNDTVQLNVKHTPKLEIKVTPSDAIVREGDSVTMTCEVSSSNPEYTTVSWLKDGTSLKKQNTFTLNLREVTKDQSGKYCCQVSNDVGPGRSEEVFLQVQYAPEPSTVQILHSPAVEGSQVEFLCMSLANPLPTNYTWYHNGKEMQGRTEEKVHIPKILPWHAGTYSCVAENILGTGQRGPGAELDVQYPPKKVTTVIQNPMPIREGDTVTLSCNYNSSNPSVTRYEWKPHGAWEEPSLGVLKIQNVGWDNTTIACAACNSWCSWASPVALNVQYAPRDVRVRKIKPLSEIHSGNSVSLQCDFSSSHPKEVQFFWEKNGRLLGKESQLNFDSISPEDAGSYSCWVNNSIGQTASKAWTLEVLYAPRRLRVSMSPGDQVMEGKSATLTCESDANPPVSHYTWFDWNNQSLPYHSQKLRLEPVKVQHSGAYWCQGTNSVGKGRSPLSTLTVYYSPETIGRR
- method notes: ELISA, Ab 0.01 nM
- Protocol: In order to detect the binding activity of CD22 human-murine chimeric antibodies to CD22 protein, the purified human CD22-ECD-His protein obtained in Example 2 was diluted with PBS to a final concentration of 2 μg/mL, and then added to 96-well ELISA plate at 100 μl/well. The plate was sealed with plastic film and incubated overnight at 4° C., the plate was washed 2 times with PBS the next day, and then a blocking solution [PBS+2% (w/w) BSA] was added for blocking at room temperature for 2 hours. […]
outcome measure: OD450 (OD450)
Answer with a number only, understood to be in OD450.

Ask | I have this binder here, F1.250.16 (antibody, human IgG1, kappa, V domains shown, Human-murine chimeric IgG1, kappa) VH: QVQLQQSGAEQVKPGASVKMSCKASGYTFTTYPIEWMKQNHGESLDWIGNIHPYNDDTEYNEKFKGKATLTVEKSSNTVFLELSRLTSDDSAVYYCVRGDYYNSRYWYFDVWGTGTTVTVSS VL: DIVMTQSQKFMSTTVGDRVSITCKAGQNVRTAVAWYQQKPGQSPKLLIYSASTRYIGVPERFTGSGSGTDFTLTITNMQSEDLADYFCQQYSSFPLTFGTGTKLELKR , and I need its recorded OD450.
Reply | 2.24

Ask | I have this binder here, F2.104.10 (antibody, human IgG1, lambda, V domains shown, Human-murine chimeric IgG1, lambda) VH: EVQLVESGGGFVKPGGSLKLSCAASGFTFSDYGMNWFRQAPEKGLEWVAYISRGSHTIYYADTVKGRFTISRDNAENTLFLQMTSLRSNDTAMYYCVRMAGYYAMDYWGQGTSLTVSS VL: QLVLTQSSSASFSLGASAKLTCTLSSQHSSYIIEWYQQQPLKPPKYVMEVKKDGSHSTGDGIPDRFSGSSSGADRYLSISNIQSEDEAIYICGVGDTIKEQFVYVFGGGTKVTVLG , and I need its recorded OD450.
Reply | 1.7
